protocol: Inhibition of recombinant Mycobacterium tuberculosis FtsZ polymerization expressed in Escherichia coli assessed as inhibition of protofilament formation by measuring intensity of light scattering in presence of GTP by fluorescence spectrophotometry method
run-parameters: read-out: IC50
pIC50: −log10 of the molar value.
Label rule, in plain words: pIC50 of 4 and up is true (1), under 4 is false (0).

For orientation, consider the following solved cases.
smi=COC(=O)C1=Cc2cc([N+](=O)[O-])ccc2N(Cc2ccccn2)C1 category="false (0)"
smi=COC(=O)C1=Cc2cc([N+](=O)[O-])ccc2N(CCO)C1 category="true (1)"
smi=CCN(CC)CCN1CC(C(=O)OC)=Cc2cc([N+](=O)[O-])ccc21 category="true (1)"

# next compound below
Given "C[C@H](c1ccccc1)N1CC(C(=O)O)=Cc2cc([N+](=O)[O-])ccc21" , state whether its pIC50 is at least 4.
true (1)

---

protocol: Inhibition of recombinant Mycobacterium tuberculosis FtsZ polymerization expressed in Escherichia coli assessed as inhibition of protofilament formation by measuring intensity of light scattering in presence of GTP by fluorescence spectrophotometry method
run-parameters: read-out: IC50
measurement-type: pIC50
Give bare numbers, as −log10 of the molar value.

Sample answers from the record:
smi=COC(=O)C1=Cc2cc([N+](=O)[O-])ccc2N(Cc2ccc3c(c2)OCO3)C1 measurement_type=pIC50 measurement=4.11
smi=CCN1CC(C(=O)OC)=Cc2cc(F)c(F)cc21 measurement_type=pIC50 measurement=3.68
smi=COC(=O)C1=Cc2cc([N+](=O)[O-])c(Cl)cc2N([C@@H](C)c2ccccc2)C1 measurement_type=pIC50 measurement=4.38
smi=COC(=O)C1=Cc2cc([N+](=O)[O-])ccc2N([C@@H](CO)C(=O)OC)C1 measurement_type=pIC50 measurement=4.48
smi=COC(=O)C1=Cc2cc3ccccc3nc2N([C@@H](CO)C(=O)OC)C1 measurement_type=pIC50 measurement=4.21

// each listed molecule needs a value for pIC50
1. COC(=O)C1=Cc2cc([N+](=O)[O-])ccc2N(Cc2ccccc2)C1
2. COCCCN1CC(C(=O)OC)=Cc2cc([N+](=O)[O-])ccc21

1: 3.74; 2: 4.05

---

I'd be grateful if you could share measured pIC50 for these entries.
protocol: Inhibition of recombinant Mycobacterium tuberculosis FtsZ polymerization expressed in Escherichia coli assessed as inhibition of protofilament formation by measuring intensity of light scattering in presence of GTP by fluorescence spectrophotometry method
run-parameters: read-out: IC50
pIC50: −log10 of the molar value.

Record excerpt, results attached:
smi=CC(=O)C1=Cc2cc([N+](=O)[O-])ccc2N(Cc2ccccc2)C1 measurement_type=pIC50 measurement="< 3.70"
smi=CCCCN1CC(C(=O)OC)=Cc2cc([N+](=O)[O-])ccc21 measurement_type=pIC50 measurement="< 3.70"

Per the record, "CC(C)(C)OC(=O)C1=Cc2cc([N+](=O)[O-])ccc2N(Cc2ccccc2)C1" has pIC50 of < 3.70
